Source of measurements: paper PMC7080202

tested on: Coxsackie virus B4; experiment: microbe, parasite or virus in culture; assay type: cell-based; details: Enterovirus B, B4, HeLa, read-out: Antiviral activity EC50 Coxsackie virus B4
pEC50: −log10 of the molar value.
Quantity kind: pEC50

>>> print(df.to_string())
                                   compound  reported_value
0  Nc1ncnc2c1ncn2C[C@H](O)CO [(S)-DHPA, reference compound]          < 3.60
1  O=C(N/N=C1\C(=O)Nc2ccccc21)N/N=C1\C(=O)Nc2ccccc21          < 4.00
2  O=C1/C(=N\NC(=S)NN=Cc2ccccc2)c2ccccc2N1Cc1ccccc1          < 4.70
3  O=C(N/N=C1\C(=O)Nc2ccc([N+](=O)[O-])cc21)N/N=C1\C(=O)Nc2ccc([N+](=O)[O-])cc21          < 4.00
4  O=C(N/N=C1\C(=O)Nc2ccc(Cl)cc21)N/N=C1\C(=O)Nc2ccc(Cl)cc21          < 4.00
